- experimental.target: Metabotropic glutamate receptor 2 (Homo sapiens)
- Sequence (Q14416 19-872 limits assumed): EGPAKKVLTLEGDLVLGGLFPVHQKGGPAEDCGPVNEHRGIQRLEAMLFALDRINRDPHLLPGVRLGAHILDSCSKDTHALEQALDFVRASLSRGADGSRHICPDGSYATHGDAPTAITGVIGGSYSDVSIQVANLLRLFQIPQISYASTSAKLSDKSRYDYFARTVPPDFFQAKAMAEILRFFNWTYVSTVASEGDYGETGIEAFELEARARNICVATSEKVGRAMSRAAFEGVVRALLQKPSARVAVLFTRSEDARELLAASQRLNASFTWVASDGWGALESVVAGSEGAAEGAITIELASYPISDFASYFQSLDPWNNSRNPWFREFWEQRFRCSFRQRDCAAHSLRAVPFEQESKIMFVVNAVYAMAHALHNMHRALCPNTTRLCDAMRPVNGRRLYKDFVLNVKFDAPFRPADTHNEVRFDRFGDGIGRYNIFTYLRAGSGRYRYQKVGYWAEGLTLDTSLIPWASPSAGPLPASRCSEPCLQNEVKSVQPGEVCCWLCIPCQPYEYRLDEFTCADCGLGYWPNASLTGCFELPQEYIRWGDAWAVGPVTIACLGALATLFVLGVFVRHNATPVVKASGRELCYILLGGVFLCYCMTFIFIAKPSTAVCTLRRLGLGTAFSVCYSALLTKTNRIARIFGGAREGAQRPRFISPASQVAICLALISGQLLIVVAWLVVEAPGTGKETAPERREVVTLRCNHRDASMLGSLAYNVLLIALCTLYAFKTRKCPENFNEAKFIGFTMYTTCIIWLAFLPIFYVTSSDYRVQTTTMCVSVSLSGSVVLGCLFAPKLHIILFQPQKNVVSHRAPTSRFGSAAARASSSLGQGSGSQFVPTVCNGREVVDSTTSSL
- protocol.notes: Allosteric modulation of human mGluR2 expressed in CHO cells by [35S]GTPgammaS binding assay relative to glutamate
- Assay type: functional, cell-based
Label scheme for Emax: lower than 200% is not fulfilled, 200% and above is fulfilled.

[Q] Decide: is the reported value of Emax for `N#Cc1c(-c2ccc(NC3CC3)c(Cl)c2)ccn2c(CC(F)(F)F)cnc12` equal to or greater than 200%?
[A] not fulfilled

[Q] Now this one: `CCCc1cnc2c(C#N)c(N3CCN(c4ncccn4)CC3)ccn12`
[A] fulfilled

[Q] Now this one: `CCCc1cnc2c(C#N)c(N3CCN(c4nc(C)cc(C)n4)CC3)ccn12`
[A] not fulfilled

[Q] Now this one: `CC(C)(C)c1ccc(-c2ccn3c(CC(F)(F)F)cnc3c2C#N)cc1`
[A] fulfilled

[Q] Now this one: `CCc1cnc2c(C#N)c(N3CCN(c4ncccn4)CC3)ccn12`
[A] fulfilled

[Q] Now this one: `CCCCn1ccc(N2CCN(c3nc(C)cc(C)n3)CC2)c(C#N)c1=O`
[A] fulfilled
